tested on: barnyardgrass; test: Preemergent control of plant species; assay type: in vivo, Echinochloa crusgalli; settings: Echinochloa crus-galli, pre-emergence, 336 h; 0.25 lb/acre; read-out: percent preemergent control
Reported property: pest or weed control at 280.212 g/ha (%)
Numbers only, in %.

> print(dat)
                                smiles.repr  target.system                     reported.property  test.result
1  Cc1ccn2nc(S(=O)(=O)Nc3c(C)nn(C)c3C(F)(F)F)nc2n1  barnyardgrass  pest or weed control at 280.212 g/ha            0
2  COc1nc2nc(S(=O)(=O)Nc3c(F)ccc(C)c3F)nn2cc1C  barnyardgrass  pest or weed control at 280.212 g/ha          100
3  CCC(=O)N(c1c(F)cccc1F)S(=O)(=O)c1nc2nc(C)ccn2n1  barnyardgrass  pest or weed control at 280.212 g/ha          100
4  COC(=O)c1cccc(F)c1NS(=O)(=O)c1nc2nc(OC)c(C)cn2n1  barnyardgrass  pest or weed control at 280.212 g/ha          100
5  Cc1cn2nc(S(=O)(=O)Nc3c(Cl)cccc3Cl)nc2nc1C  barnyardgrass  pest or weed control at 280.212 g/ha           50
6  COC(=O)c1cccc(C)c1NS(=O)(=O)c1nc2nc(C)cc(C)n2n1  barnyardgrass  pest or weed control at 280.212 g/ha           95
7  Cc1ccn2nc(S(=O)(=O)N(C(=O)C(C)C)c3c(F)cccc3F)nc2n1  barnyardgrass  pest or weed control at 280.212 g/ha           90
8  Cc1cc(C)n2nc(S(=O)(=O)Nc3c(F)cccc3C(=O)OC(C)(C)C)nc2n1  barnyardgrass  pest or weed control at 280.212 g/ha            0

Could you report pest or weed control at 280.212 g/ha for every entry in the following list?
1. Cc1cc(C)n2nc(S(=O)(=O)Nc3ccccc3Br)nc2n1
2. COc1nc2nc(S(=O)(=O)Nc3c(C)cccc3[N+](=O)[O-])nn2cc1C
3. COc1cc(C)n2nc(S(=O)(=O)Nc3c(Cl)cccc3Cl)nc2n1
4. Cc1ccn2nc(S(=O)(=O)Nc3c(C)cccc3Cl)nc2n1
5. CC(=O)N(c1c(F)cccc1F)S(=O)(=O)c1nc2nc(C)ccn2n1
6. Cc1cc(C(F)(F)F)n2nc(S(=O)(=O)Nc3c(Cl)cccc3Cl)nc2n1
7. Cc1cc(C)n2nc(S(=O)(=O)Nc3c(F)cccc3F)nc2n1
8. Cc1ccn2nc(S(=O)(=O)N(C(=O)CC(C)(C)C)c3c(F)cccc3F)nc2n1

1. 80
2. 100
3. 25
4. 80
5. 100
6. 50
7. 98
8. 100

Each of the following entries comes with a recorded value; kindly state pest or weed control at 280.212 g/ha for each.
1. COc1nc2nc(S(=O)(=O)Nc3c(Cl)ccc(C)c3Cl)nn2cc1C
2. CCCCCCCCCC(=O)N(c1c(F)cccc1F)S(=O)(=O)c1nc2nc(C)ccn2n1

1: 0; 2: 100

These measurements were taken from patent US4740233A.
